- measured.on: hIRE1α LD E102R (Homo sapiens, UniProt O75460, E102R)
- Construct: His6 (N, cleaved yes); made in house; host or cells: Escherichia coli BL21DE3* RIPL
- Sequence (O75460 24-443 E102R): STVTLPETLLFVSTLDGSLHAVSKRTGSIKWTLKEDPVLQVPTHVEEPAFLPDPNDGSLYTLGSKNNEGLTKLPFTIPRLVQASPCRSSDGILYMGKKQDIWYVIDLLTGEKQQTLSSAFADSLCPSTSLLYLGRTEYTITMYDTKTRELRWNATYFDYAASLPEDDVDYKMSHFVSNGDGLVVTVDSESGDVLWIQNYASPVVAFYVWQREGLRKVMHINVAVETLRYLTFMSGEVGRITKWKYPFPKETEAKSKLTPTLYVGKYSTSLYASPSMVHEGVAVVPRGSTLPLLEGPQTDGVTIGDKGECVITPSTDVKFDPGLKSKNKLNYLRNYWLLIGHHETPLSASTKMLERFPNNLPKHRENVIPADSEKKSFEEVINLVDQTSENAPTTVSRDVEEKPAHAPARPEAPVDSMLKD
- assay.remarks: Fluorescence anisotropy, binding of labeled MPZ1N-2X to hIRE1α LD E102R
- measurement.context: fluorescence anisotropy, 5-FAM-labeled peptide 90 nM, pH 7.2, 30 min, 25°C, R2 0.9992, read-out: KD
Ends that are not written are not given here.
experimental.readout: Kd (µM)
Numbers only here, please. The scale is µM.

Kd reading for LIRYAWLRRQAALQRRLIRYAWLRRQAA [MPZ1N-2X] : 6.35
